# Tested on: hepatocellular carcinoma (HepG2)
# test description: MTT cytotoxicity assay, HepG2
# Format: cell-based, human
# particulars: 72 h
pIC50: −log10 of the molar value.
Listed compounds paired with reported pIC50

compound | pIC50
CCCCn1cc[n+](CCCC)[c]1[Pt-2]12[c]3ccccc3-c3cccc([n+]31)-c1cccc[n+]12.F[P-](F)(F)(F)(F)F (centres unmarked) [Complex 14] | 6.11
CCCCn1cc[n+](C[n+]2ccn(CCCC)[c]2[Au-]23[c]4cc5ccccc5cc4-c4cc(-c5ccc(OC)cc5)cc([n+]42)-c2cc4ccccc4c[c]23)[c]1[Au-]12[c]3cc4ccccc4cc3-c3cc(-c4ccc(OC)cc4)cc([n+]31)-c1cc3ccccc3c[c]12.O=S(=O)([O-])C(F)(F)F.O=S(=O)([O-])C(F)(F)F [Complex 9] | 5.35
Cn1cc[n+](C)[c]1[Au-]12[c]3ccccc3-c3cccc([n+]31)-c1cccc[c]12.O=S(=O)([O-])C(F)(F)F [Complex 1] | 6.43
CCCCn1cc[n+](C[n+]2ccn(CCCC)[c]2[Au-]23[c]4ccccc4-c4cccc([n+]42)-c2cccc[c]23)[c]1[Au-]12[c]3ccccc3-c3cccc([n+]31)-c1cccc[c]12.O=S(=O)([O-])C(F)(F)F.O=S(=O)([O-])C(F)(F)F [Complex 2] | 5.10
Cn1cc[n+](C)[c]1[Pt-2]12[c]3ccccc3-c3cccc([n+]31)-c1cccc[n+]12.F[P-](F)(F)(F)(F)F (centres unmarked) [Complex 11] | 6.51

----------
Listed molecules paired with reported IC50
# Tested on: leukemia (HL-60)
# test description: MTT cytotoxicity assay, HL-60
# Assay type: cell-based, human
# particulars: 72 h

molecule | IC50 / nM
Cc1cc(C)c(-[n+]2ccn(CC(=O)c3ccccc3)[c]2[Au-]23[c]4ccccc4-c4cccc([n+]42)-c2cccc[c]23)c(C)c1.O=S(=O)([O-])C(F)(F)F | 1200
CC(C)c1cc(C(C)C)c(-n2cc[n+](-c3c(C(C)C)cc(C(C)C)cc3C(C)C)[c]2[Au-]23[c]4ccccc4-c4cccc([n+]42)-c2cccc[c]23)c(C(C)C)c1.O=S(=O)([O-])C(F)(F)F | 1100
CCCn1cc[n+](CCC)[c]1[Pt-2]12[c]3ccccc3-c3cccc([n+]31)-c1cccc[n+]12.F[P-](F)(F)(F)(F)F (stereo not drawn) | 560

----------
Listed molecules paired with reported IC50
# Tested on: leukemia (HL-60)
# test description: MTT cytotoxicity assay, HL-60
# Assay type: cell-based, human
# particulars: 72 h

molecule | system name | measurement unit | IC50
COc1ccc(-c2cc3[n+]4c(c2)-c2cc5ccccc5c[c]2[Au-]4([c]2n(C)cc[n+]2C)[c]2cc4ccccc4cc2-3)cc1.O=S(=O)([O-])C(F)(F)F [Complex 8] | leukemia (HL-60) | nM | 130
Cn1cc[n+](C)[c]1[Pt-2]12[c]3ccccc3-c3cccc([n+]31)-c1cccc[n+]12.F[P-](F)(F)(F)(F)F (stereo not drawn) [Complex 11] | leukemia (HL-60) | nM | 580
CCCCn1cc[n+](CCCC)[c]1[Pt-2]12[c]3ccccc3-c3cccc([n+]31)-c1cccc[n+]12.F[P-](F)(F)(F)(F)F (stereo not drawn) [Complex 14] | leukemia (HL-60) | nM | 80
